assay.summary: self-splicing fitness, log relative to wild type (ln ratio); higher = more splicing; Tetrahymena group I intron in knt gene, E. coli kanamycin selection, DiMSum; sequences stand for … in CUCUCU…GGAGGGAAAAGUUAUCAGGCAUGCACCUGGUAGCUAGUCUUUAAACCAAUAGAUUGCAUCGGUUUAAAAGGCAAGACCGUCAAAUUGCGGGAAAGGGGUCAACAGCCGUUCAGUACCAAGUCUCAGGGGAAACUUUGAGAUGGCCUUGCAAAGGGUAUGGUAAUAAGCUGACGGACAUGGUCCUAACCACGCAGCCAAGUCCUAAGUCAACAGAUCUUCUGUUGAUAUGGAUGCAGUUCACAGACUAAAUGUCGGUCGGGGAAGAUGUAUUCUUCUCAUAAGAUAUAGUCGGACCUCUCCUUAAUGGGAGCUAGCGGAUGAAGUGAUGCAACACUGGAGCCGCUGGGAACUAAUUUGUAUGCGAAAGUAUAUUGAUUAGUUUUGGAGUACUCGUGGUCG;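 further: selection with 25 µg/mL kanamycin versus none on LB agar overnight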
test.context: 37 °C
Listing of entries alongside the reported self-splicing fitness (ln).
// no unit string in output, number only

{"sequence.string": "CUGUAGCAAUAUUACGAGAU", "self-splicing fitness (ln)": -2.21}
{"sequence.string": "GCGUAGCAAUAUUACGUGCA", "self-splicing fitness (ln)": -1.02}

(Q) Fill in: self-splicing fitness (ln) of GAAAAGCAAUAUUACGUUCC is ___
(A) -2.95

(Q) What does the data say about its self-splicing fitness (ln)? Entry: CCUUAGCAAUAUUACGUGAA
(A) -3.37

* * *

assay.summary: self-splicing fitness, log relative to wild type (ln ratio); higher = more splicing; Tetrahymena group I intron in knt gene, E. coli kanamycin selection, DiMSum; sequences stand for … in CUCUCU…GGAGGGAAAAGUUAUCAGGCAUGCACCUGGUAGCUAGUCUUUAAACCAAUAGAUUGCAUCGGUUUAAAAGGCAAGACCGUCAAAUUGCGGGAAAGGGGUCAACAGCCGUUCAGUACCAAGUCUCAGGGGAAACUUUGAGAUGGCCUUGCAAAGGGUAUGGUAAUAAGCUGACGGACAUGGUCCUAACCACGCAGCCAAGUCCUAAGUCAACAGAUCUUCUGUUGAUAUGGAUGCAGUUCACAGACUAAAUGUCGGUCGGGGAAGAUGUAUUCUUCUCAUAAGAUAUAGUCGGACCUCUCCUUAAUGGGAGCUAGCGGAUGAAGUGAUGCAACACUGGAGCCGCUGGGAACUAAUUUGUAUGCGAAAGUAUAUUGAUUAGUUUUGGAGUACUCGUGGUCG
test.context: 30 °C
experimental.endpoint: self-splicing fitness (ln)
No unit in the answer, only the number.

{"sequence.string": "GCCCAGCAAUAUUACGGGUG", "self-splicing fitness (ln)": -1.58}

(Q) # query: self-splicing fitness (ln) of entry CCAAAGCAAUAUUACGUCGG
(A) -3.29

(Q) Entry under review: AGUAAGCAAUAUUACGAUGU . Reported self-splicing fitness (ln)?
(A) -3.05

(Q) Quick one: self-splicing fitness (ln) of AAAAAGCAAUAUUACGAUGA ?
(A) -0.913

(Q) What does the data say about its self-splicing fitness (ln)? Entry: CCAUAGCAAUAUUACGAGUG
(A) -1.44

(Q) What does the data say about its self-splicing fitness (ln)? Entry: AAUAAGCAAUAUUACGCCUG
(A) -0.724

(Q) Could you share which self-splicing fitness (ln) value was measured for UUGAAGCAAUAUUACGGCAU ?
(A) -0.14

(Q) Can you share its self-splicing fitness (ln)? I mean this sequence: ACAAAGCAAUAUUACGCAUU
(A) -3.06

* * *

assay.summary: self-splicing fitness, log relative to wild type (ln ratio); higher = more splicing; Tetrahymena group I intron in knt gene, E. coli kanamycin selection, DiMSum; sequences stand for … in CUCUCU…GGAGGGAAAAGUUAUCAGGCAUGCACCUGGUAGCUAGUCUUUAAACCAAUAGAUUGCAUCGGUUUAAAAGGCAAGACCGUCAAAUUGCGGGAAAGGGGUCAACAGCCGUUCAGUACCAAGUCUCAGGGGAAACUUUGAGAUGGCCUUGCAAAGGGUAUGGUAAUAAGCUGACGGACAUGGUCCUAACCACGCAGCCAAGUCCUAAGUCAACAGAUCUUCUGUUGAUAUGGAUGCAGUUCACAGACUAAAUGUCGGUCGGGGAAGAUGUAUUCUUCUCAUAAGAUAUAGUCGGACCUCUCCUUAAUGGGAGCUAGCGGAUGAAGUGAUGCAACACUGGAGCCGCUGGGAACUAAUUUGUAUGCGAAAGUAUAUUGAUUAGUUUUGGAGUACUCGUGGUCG
test.context: 30 °C
experimental.endpoint: self-splicing fitness (ln)
Keep the answer to the number alone.

Worked examples follow.
{"sequence.string": "AAGAAGCAAUAUUACGCUGC", "assay.result": -2.58}
{"sequence.string": "GGCCAGCAAUAUUACGGGCU", "assay.result": -2.4}
{"sequence.string": "GGCAAGCAAUAUUACGAUCU", "assay.result": -0.22}
{"sequence.string": "AGUUAGCAAUAUUACGGCGU", "assay.result": -0.00974}
{"sequence.string": "UAAAAGCAAUAUUACGUAUG", "assay.result": -1.07}

(Q) Record request: self-splicing fitness (ln) value, item CGGGAGCAAUAUUACGUAAG
(A) -1.46

(Q) # lookup: self-splicing fitness (ln) of UGUCAGCAAUAUUACGUAUU
(A) -1.77

(Q) Data request, read-out self-splicing fitness (ln), for CUCAAGCAAUAUUACGUAAA
(A) -3.37

(Q) So what's the measured self-splicing fitness (ln) for this one? AUUGAGCAAUAUUACGAACG
(A) -2.34

* * *

assay.summary: self-splicing fitness, log relative to wild type (ln ratio); higher = more splicing; Tetrahymena group I intron in knt gene, E. coli kanamycin selection, DiMSum; sequences stand for … in CUCUCU…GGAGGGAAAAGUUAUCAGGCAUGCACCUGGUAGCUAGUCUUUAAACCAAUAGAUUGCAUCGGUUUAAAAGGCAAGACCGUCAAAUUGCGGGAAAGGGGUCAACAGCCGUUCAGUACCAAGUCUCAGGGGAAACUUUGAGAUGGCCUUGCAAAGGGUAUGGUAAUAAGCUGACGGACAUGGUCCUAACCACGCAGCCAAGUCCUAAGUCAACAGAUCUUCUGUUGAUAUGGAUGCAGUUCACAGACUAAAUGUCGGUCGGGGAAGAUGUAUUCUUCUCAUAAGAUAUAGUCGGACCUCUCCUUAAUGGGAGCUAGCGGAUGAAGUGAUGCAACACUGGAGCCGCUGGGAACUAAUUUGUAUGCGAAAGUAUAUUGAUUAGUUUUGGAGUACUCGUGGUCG
test.context: 30 °C
experimental.endpoint: self-splicing fitness (ln)
The response must contain the number and no unit.

// below: answered sequences
{"sequence.string": "CUGGAGCAAUAUUACGCGGC", "self-splicing fitness (ln)": -1.27}
{"sequence.string": "GUAGAGCAAUAUUACGGAAG", "self-splicing fitness (ln)": -2.83}
{"sequence.string": "GUCGAGCAAUAUUACGAAGA", "self-splicing fitness (ln)": -3.82}
{"sequence.string": "ACGCAGCAAUAUUACGCUUA", "self-splicing fitness (ln)": -0.737}
{"sequence.string": "AUGUAGCAAUAUUACGCCUG", "self-splicing fitness (ln)": -1.33}
{"sequence.string": "AAACAGCAAUAUUACGCUUA", "self-splicing fitness (ln)": -1.92}
{"sequence.string": "UUCAAGCAAUAUUACGAUAG", "self-splicing fitness (ln)": -1.81}
{"sequence.string": "GUGUAGCAAUAUUACGGUUA", "self-splicing fitness (ln)": -0.588}

(Q) Param item = UGCCAGCAAUAUUACGGCUG ; retrieve measured self-splicing fitness (ln).
(A) -3.47

(Q) Which self-splicing fitness (ln) is reported for this sequence? UCUCAGCAAUAUUACGCGGC
(A) -4.17

(Q) # input sequence: AAUUAGCAAUAUUACGAGUU ; wanted: its self-splicing fitness (ln)
(A) -1.48

(Q) # get_value(readout='self-splicing fitness (ln)', item= CGCUAGCAAUAUUACGACGG )
(A) -0.226

* * *

assay.summary: self-splicing fitness, log relative to wild type (ln ratio); higher = more splicing; Tetrahymena group I intron in knt gene, E. coli kanamycin selection, DiMSum; sequences stand for … in CUCUCU…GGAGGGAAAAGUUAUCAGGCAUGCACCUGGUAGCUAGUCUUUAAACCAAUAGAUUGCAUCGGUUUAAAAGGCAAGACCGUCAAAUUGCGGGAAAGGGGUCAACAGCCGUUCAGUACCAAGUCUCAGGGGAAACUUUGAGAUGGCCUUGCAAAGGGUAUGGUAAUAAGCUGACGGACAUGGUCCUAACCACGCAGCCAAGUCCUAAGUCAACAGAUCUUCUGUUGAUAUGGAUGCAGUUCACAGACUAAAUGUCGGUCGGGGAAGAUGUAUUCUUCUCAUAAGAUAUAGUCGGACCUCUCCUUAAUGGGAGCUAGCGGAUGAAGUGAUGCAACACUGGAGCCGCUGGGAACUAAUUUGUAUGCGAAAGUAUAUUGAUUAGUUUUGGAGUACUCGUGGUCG
test.context: 30 °C
Each entry falls in a class defined on self-splicing fitness (ln); the bands are bottom end = under -2, midrange = from -2 up to -0.9, top end = -0.9 and over

Recorded results for 8 sequences are shown here.
{"sequence.string": "UCUAAGCAAUAUUACGUGCC", "answer.label": "bottom end"}
{"sequence.string": "GCGUAGCAAUAUUACGCUCC", "answer.label": "midrange"}
{"sequence.string": "ACAUAGCAAUAUUACGCCCG", "answer.label": "top end"}
{"sequence.string": "GCAGAGCAAUAUUACGGGUU", "answer.label": "bottom end"}
{"sequence.string": "CCGGAGCAAUAUUACGCCAC", "answer.label": "bottom end"}
{"sequence.string": "CCACAGCAAUAUUACGUCCU", "answer.label": "bottom end"}
{"sequence.string": "UCAUAGCAAUAUUACGAGGC", "answer.label": "bottom end"}
{"sequence.string": "GGCAAGCAAUAUUACGGUUC", "answer.label": "top end"}

(Q) Returns: class label. Input: AACCAGCAAUAUUACGUGCC
(A) midrange

(Q) Place this sequence in its band: AAAAAGCAAUAUUACGAUCG
(A) top end

(Q) Each sequence maps to one class by self-splicing fitness (ln). Which class for CUAAAGCAAUAUUACGGUAG ?
(A) top end

(Q) Given AUUAAGCAAUAUUACGCUUA , name the class its self-splicing fitness (ln) places it in.
(A) bottom end

(Q) Which class is correct for the following sequence? GCGUAGCAAUAUUACGGGCA
(A) top end

(Q) Which class does UGAAAGCAAUAUUACGGUGG fall in?
(A) midrange

(Q) Textbook exercise: identify the category of the sequence given here, GGGCAGCAAUAUUACGCGCA , according to its measured value.
(A) top end
